experimental.target: CDK9 (Homo sapiens)
Construct: endogenous in cells; host or cells: MDA-MB-231
Sequence (P50750 whole entry): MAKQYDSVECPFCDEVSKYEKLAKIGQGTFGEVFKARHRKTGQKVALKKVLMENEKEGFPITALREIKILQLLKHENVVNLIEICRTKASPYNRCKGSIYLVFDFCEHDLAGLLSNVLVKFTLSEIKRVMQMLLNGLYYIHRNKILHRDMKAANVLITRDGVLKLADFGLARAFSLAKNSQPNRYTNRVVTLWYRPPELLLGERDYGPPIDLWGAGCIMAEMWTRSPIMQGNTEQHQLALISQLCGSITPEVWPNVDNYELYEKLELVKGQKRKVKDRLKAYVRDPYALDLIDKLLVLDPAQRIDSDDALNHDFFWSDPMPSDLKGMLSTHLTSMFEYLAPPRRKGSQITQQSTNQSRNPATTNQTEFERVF
method: CDK protein degradation activity (Western blotting), CDK9
Assay type: cell-based
condition.info: MDA-MB-231 cells, 1 μM, 16 hours, Western blot
reported.property: Enzyme degradation CDK9 (% remaining) @ 1 μM

Consider the following illustrative entries.
[
  {
    "molecule": "O=C1CCC(N2C(=O)c3ccc(N4CCC(C(=O)N5CCC(CN6CCN(c7ccc(Nc8ncnc9c8ncn9[C@H]8C[C@@H](NC(=O)c9cccc(C(F)(F)F)n9)C8)cc7)CC6)CC5)CC4)cc3C2=O)C(=O)N1 (stereo partly shown)",
    "value.observed": "0/0/0%"
  },
  {
    "molecule": "Cc1cccc(C(=O)NC2CC(n3cnc4c(Nc5ccc(N6CCN(CC7CCN(c8ccc9nnn([C@H]%10CCC(=O)NC%10=O)c(=O)c9c8)CC7)CC6)cc5C)ncnc43)C2)n1 (stereo partly shown)",
    "value.observed": "20/20/20%"
  },
  {
    "molecule": "O=C1CC[C@@H](c2ccc(OCC(=O)N3CCC4(CC3)CC(N3CCN(c5ccc(Nc6ncnc7c6ncn7[C@H]6C[C@@H](NC(=O)c7c(Cl)cccc7Cl)C6)cc5)CC3)C4)cc2)C(=O)N1",
    "value.observed": "0/0/0%"
  },
  {
    "molecule": "O=C(Cc1cccc(NC2=CC(=O)N(C3CCC(=O)NC3=O)C2=O)c1)NC[C@H]1CC[C@H](CN2CCN(c3ccc(Nc4ncnc5c4ncn5[C@H]4C[C@@H](NC(=O)Cc5ccccc5)C4)cc3)CC2)CC1 (stereo partly shown)",
    "value.observed": "20/20/20%"
  }
]

Problem: Look up Enzyme degradation CDK9 (% remaining) @ 1 μM with CDK9 (Homo sapiens) for this molecule: O=C1CC[C@H](N2C(=O)c3cc(F)c(N4CCC(CN5CCN(c6ccc(Nc7ncnc8c7ncn8C7CC(NC(=O)c8c(Cl)cccc8Cl)C7)cc6)CC5)CC4)cc3C2=O)C(=O)N1 (stereo partly shown)
Solution: 0/0/0%

Problem: Look up Enzyme degradation CDK9 (% remaining) @ 1 μM with CDK9 (Homo sapiens) for this molecule: O=C1CCC(N2C(=O)c3cccc(NCC(=O)N4CCC5(CC4)CC(N4CCC(c6ccc(Nc7ncnc8c7ncn8[C@H]7C[C@@H](NC(=O)Cc8ccccc8)C7)cc6)CC4)C5)c3C2=O)C(=O)N1 (stereo partly shown)
Solution: 0/0/0%

Problem: Look up Enzyme degradation CDK9 (% remaining) @ 1 μM with CDK9 (Homo sapiens) for this molecule: O=C1CC[C@H](N2C(=O)c3cc(F)c(N4CCC(C(=O)N5CCC6(CC5)CC(N5CCN(c7ccc(Nc8ncnc9c8ncn9C8CC(NC(=O)Cc9ccccc9)C8)cc7)CC5)C6)CC4)cc3C2=O)C(=O)N1 (stereo partly shown)
Solution: 0/0/0%

* * *

experimental.target: CDK9 (Homo sapiens)
Construct: endogenous in cells; host or cells: MDA-MB-231
method: CDK protein degradation activity (Western blotting), CDK9
Format: cell-based
condition.info: MDA-MB-231 cells, 1 μM, 16 hours, Western blot
reported.property: Enzyme degradation CDK9 (% remaining) @ 1 μM

Consider the following illustrative entries.
[
  {
    "compound": "O=C(COc1ccc(C2CCC(=O)NC2=O)cc1)NC[C@H]1CC[C@H](CN2CCN(c3ccc(Nc4ncnc5c4ncn5[C@H]4C[C@@H](NC(=O)Cc5ccccc5)C4)cc3)CC2)CC1 (some centres unmarked)",
    "value.observed": "0/0/0%"
  },
  {
    "compound": "O=C1CC[C@H](N2C(=O)c3ccc(N4CC(C(=O)N5CCC(CN6CCN(c7ccc(Nc8ncnc9c8ncn9C8CC(NC(=O)c9cccc(Cl)n9)C8)cc7)CC6)CC5)C4)cc3C2=O)C(=O)N1 (some centres unmarked)",
    "value.observed": "0/0/0%"
  },
  {
    "compound": "Cc1cccc(C(=O)NC2CC(n3cnc4c(Nc5ccc(N6CCN(CCC7CCN(c8ccc9c(c8)C(=O)N([C@H]8CCC(=O)NC8=O)C9=O)CC7)CC6)cc5)ncnc43)C2)n1 (some centres unmarked)",
    "value.observed": "0/0/0%"
  },
  {
    "compound": "O=C1CC[C@@H](c2ccc(OCC(=O)N3CCC4(CC3)CC(N3CCN(c5ccc(Nc6ncnc7c6ncn7[C@H]6C[C@@H](NC(=O)c7cccc(C(F)(F)F)n7)C6)cc5)CC3)C4)cc2)C(=O)N1",
    "value.observed": "10/10/10%"
  }
]

Please find the next compound below.
Problem: Please give the measured Enzyme degradation CDK9 (% remaining) @ 1 μM for this compound: "Cc1cccc(C(=O)N[C@H]2C[C@@H](n3cnc4c(NC5CCN(CC6CCN(C(=O)CNc7ccc8c(c7)C(=O)N([C@H]7CCC(=O)NC7=O)C8=O)CC6)CC5)ncnc43)C2)n1"
Solution: 0/0/0%
